Molecular target: T1, Clostridium difficile toxin B, soluble full-length (TechLab) (Clostridium difficile, UniProt P18177 2-2366)
T1 construct: also called tcdB
T1 sequence (P18177 2-2366 limits assumed): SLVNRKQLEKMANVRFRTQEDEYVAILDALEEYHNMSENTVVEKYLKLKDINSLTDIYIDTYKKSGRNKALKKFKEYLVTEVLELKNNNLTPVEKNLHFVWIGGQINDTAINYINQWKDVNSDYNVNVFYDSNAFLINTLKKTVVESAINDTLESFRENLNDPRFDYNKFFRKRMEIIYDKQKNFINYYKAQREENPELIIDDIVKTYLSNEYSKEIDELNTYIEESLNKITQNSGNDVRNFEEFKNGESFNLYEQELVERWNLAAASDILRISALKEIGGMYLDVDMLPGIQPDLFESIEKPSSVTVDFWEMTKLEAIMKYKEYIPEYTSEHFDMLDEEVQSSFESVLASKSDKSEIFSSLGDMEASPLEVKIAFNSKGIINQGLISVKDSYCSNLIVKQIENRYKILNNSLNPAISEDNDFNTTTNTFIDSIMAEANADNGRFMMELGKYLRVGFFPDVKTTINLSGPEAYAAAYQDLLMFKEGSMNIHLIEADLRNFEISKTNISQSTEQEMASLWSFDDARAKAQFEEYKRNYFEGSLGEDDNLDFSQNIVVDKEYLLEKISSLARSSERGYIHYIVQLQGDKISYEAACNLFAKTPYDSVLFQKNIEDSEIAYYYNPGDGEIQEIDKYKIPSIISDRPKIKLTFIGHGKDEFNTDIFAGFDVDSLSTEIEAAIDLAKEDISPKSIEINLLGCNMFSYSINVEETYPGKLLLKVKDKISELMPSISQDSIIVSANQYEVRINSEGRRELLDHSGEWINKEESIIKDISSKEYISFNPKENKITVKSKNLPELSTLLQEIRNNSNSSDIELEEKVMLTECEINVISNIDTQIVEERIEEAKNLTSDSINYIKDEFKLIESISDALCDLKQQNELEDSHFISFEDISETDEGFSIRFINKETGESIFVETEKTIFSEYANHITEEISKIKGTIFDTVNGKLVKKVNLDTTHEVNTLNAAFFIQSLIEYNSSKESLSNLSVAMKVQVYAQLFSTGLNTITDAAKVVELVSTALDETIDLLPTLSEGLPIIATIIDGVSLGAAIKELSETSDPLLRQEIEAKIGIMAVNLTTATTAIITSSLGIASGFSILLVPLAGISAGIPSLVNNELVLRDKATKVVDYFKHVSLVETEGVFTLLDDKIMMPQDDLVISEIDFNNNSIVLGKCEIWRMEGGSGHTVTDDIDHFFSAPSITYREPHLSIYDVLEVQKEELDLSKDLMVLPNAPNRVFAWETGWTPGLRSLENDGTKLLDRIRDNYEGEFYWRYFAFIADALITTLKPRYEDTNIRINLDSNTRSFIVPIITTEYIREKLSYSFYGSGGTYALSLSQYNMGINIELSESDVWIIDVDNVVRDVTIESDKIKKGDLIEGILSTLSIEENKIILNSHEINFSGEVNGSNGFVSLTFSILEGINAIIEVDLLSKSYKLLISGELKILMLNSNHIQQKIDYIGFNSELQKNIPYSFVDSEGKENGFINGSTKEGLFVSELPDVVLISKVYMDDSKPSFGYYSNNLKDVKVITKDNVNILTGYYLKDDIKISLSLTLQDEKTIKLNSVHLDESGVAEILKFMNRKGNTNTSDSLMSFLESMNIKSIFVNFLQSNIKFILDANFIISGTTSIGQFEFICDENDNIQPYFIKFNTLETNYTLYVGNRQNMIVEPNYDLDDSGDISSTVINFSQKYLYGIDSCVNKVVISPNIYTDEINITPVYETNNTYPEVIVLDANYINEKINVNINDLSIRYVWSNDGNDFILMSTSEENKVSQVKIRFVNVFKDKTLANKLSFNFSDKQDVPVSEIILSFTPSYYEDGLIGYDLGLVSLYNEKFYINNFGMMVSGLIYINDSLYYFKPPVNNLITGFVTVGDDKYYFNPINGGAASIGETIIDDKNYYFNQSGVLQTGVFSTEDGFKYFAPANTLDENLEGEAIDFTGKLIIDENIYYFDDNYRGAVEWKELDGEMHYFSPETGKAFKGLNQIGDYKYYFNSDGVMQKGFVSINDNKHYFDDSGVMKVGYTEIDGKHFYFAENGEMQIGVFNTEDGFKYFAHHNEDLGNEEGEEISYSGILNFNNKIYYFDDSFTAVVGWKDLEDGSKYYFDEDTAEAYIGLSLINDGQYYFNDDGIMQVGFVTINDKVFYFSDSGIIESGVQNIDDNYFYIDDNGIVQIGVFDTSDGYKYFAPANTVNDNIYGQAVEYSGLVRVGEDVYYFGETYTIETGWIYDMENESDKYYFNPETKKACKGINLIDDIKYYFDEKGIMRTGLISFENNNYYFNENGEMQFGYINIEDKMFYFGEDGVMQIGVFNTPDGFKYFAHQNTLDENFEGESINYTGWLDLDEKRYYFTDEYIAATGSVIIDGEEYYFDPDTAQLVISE
Assay: SPR Biacore T200, 37C, mAb capture
Endpoint Label: Kd

>>> result("H1H3343P (antibody, V domains shown) VH: EVQLVESGGGLVQPGGSLRLSCVASGFNFRIYAMSWVRQAPGKGPEWVSGISGSGDNTYYAASVKGRFTVSRDNSKNTLYLQMTSLRAEDTAVFYCARGWELLNYWGQGTLVTVSS VL: DIQMTQSPSSLSASVGDRVTITCRASLDIGNFLAWFQQKPGTAPKSLIYSASSLQTGVPSKFSGSGSGTDFTLTISSLQPEDFATYYCQQYNSYPPTFGPGTKVDIKR")
"1.58 nM"
>>> result("H1H3411P (antibody, V domains shown) VH: EVQLVESGGGLVQPGGSLRLSCAASGFTFSRYGMNWVRQAPGKGLEWVSAISGSGGSTYHADSVKGRFTISRDNSKNTLYLQMNSLRAADTAIYFCASYNWNDGVDVWGQGTTVTVS VL: DIQMTQSPSSVSASIGDRVTITCRASQGISNWLAWYQQKPGKAPKLLIYGASSLQSGVSSRFSGSGSGTDFTLTIISLQPEDFATYYCQQANSFPYTFGQGTKLEIKR")
"0.677 nM"
>>> result("H1H3401P (antibody, V domains shown) VH: QVQLVESGGGVVQPGRSLRLSCEASGFTFSSYGMHWVRQAPGNGLEWIAVISSDGNNKYYIESVKGRFTMSRDNSKNTLYLQLNSLRTEDTAVYYCATYNWNDDGDGVFDYWGQGTLVTVSS VL: DIQMTQSPSSVSASVGDRVTITCRASQGISNWLAWYQQKPGKAPKLLIYGTSSLQSGVPSRFSGSGSGTDFTLTISSLQPEDFATYYCQQVKSFPYTFGQGTKLEIKR")
"0.574 nM"

Values were extracted from patent US20160264650A1.
